Assay overview: Displacement of [3H]-DTG from Sigma 2 receptor in guinea pig brain membrane incubated for 120 mins in presence of sigma1 blocker (+)-SKF-10047 by liquid scintillation counting method
Type: cell membranes, Cavia porcellus
Endpoint: pKi
// pKi: -log10(molar conc.)

Query :: Respond only with pKi recorded for COc1ccc(CN2CCN(C(=O)CCCCC3CCSS3)CC2)cc1 (stereo unspecified)
Result :: 5.61

Query :: Respond only with pKi recorded for O=C(CCCCC1CCSS1)OC1CCN(Cc2ccc(F)cc2)CC1 (stereo unspecified)
Result :: 5.19

Query :: Respond only with pKi recorded for `O=C(CCCC[C@@H]1CCSS1)OC1CCN(Cc2ccccc2)CC1`
Result :: 5.73

Query :: Respond only with pKi recorded for `O=C(CCCC[C@@H]1CCSS1)N1CCN(Cc2ccccc2)CC1`
Result :: 5.90

Query :: Respond only with pKi recorded for COc1ccc(CN2CCC(OC(=O)CCCCC3CCSS3)CC2)cc1 (stereo unspecified)
Result :: 5.82

Query :: Respond only with pKi recorded for O=C(CCCCC1CCSS1)N1CCN(Cc2ccc(F)cc2)CC1 (stereo unspecified)
Result :: 5.89

====

Assay overview: Stability of compound in phosphate buffer at pH 7.4 assessed as compound half life by HPLC-UV assay
Assay type: physicochemical
Exercise: for every item that follows, state its recorded half-life.
// note: answer is a bare numeric in h

Query :: Respond only with half-life recorded for O=C(CCCCC1CCSS1)N1CCN(Cc2ccccc2)CC1 (stereo unspecified)
Result :: 53.8

Query :: Respond only with half-life recorded for O=C(CCCCC1CCSS1)OC1CCN(Cc2ccc(F)cc2)CC1 (stereo unspecified)
Result :: 38

Query :: Respond only with half-life recorded for O=C(CCCCC1CCSS1)N1CCN(Cc2ccc(F)cc2)CC1 (stereo unspecified)
Result :: 81

Query :: Respond only with half-life recorded for COc1ccc(CN2CCN(C(=O)CCCCC3CCSS3)CC2)cc1 (stereo unspecified)
Result :: 238

Query :: Respond only with half-life recorded for O=C(CCCCC1CCSS1)OC1CCN(Cc2ccccc2)CC1 (stereo unspecified)
Result :: 40.5

Query :: Respond only with half-life recorded for COc1ccc(CN2CCC(OC(=O)CCCCC3CCSS3)CC2)cc1 (stereo unspecified)
Result :: 37

====

Assay overview: Stability of compound in fasted state stimulated intestinal fluid at pH 1.3 assessed as rate of compound hydrolysis in presence of 10 mg/ml pepsin by HPLC-UV assay
Assay type: ADME
Condition info: isolated protein
Decision: Drug degradation >= 0.007 h⁻¹ yields rule met, all other cases yield rule not met.

Query :: Check this molecule for Drug degradation at or above 0.007 h⁻¹: O=C(CCCCC1CCSS1)OC1CCN(Cc2ccccc2)CC1 (stereo unspecified)
Result :: rule met

Query :: Check this molecule for Drug degradation at or above 0.007 h⁻¹: COc1ccc(CN2CCN(C(=O)CCCCC3CCSS3)CC2)cc1 (stereo unspecified)
Result :: rule not met

Query :: Check this molecule for Drug degradation at or above 0.007 h⁻¹: O=C(CCCCC1CCSS1)N1CCN(Cc2ccccc2)CC1 (stereo unspecified)
Result :: rule met

Query :: Check this molecule for Drug degradation at or above 0.007 h⁻¹: O=C(CCCCC1CCSS1)OC1CCN(Cc2ccc(F)cc2)CC1 (stereo unspecified)
Result :: rule met

Query :: Check this molecule for Drug degradation at or above 0.007 h⁻¹: COc1ccc(CN2CCC(OC(=O)CCCCC3CCSS3)CC2)cc1 (stereo unspecified)
Result :: rule met

====

Exercise: for every item that follows, state its recorded pKi.
Tgt: Sigma non-opioid intracellular receptor 1 (Cavia porcellus)
Sequence (Q60492 whole entry): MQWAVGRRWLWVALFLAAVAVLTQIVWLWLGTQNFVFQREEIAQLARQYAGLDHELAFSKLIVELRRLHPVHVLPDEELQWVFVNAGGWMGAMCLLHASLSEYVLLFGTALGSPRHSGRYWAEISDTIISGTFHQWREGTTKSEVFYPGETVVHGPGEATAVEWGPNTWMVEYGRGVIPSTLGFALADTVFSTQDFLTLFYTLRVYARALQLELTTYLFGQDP
Assay overview: Displacement of [3H]-(+)-pentazocine from sigma1 receptor in guinea pig brain membrane incubated for 150 mins by liquid scintillation counting method
// pKi: -log10(molar conc.)

Query :: Respond only with pKi recorded for O=C(CCCCC1CCSS1)OC1CCN(Cc2ccc(F)cc2)CC1 (stereo unspecified)
Result :: 8.39

Query :: Respond only with pKi recorded for `O=C(CCCC[C@@H]1CCSS1)OC1CCN(Cc2ccccc2)CC1`
Result :: 7.75

Query :: Respond only with pKi recorded for O=C(CCCCC1CCSS1)N1CCN(Cc2ccc(F)cc2)CC1 (stereo unspecified)
Result :: 8.54

Query :: Respond only with pKi recorded for COc1ccc(CN2CCN(C(=O)CCCCC3CCSS3)CC2)cc1 (stereo unspecified)
Result :: 8.24

Query :: Respond only with pKi recorded for `O=C(CCCC[C@@H]1CCSS1)N1CCN(Cc2ccccc2)CC1`
Result :: 8.21

Query :: Respond only with pKi recorded for COc1ccc(CN2CCC(OC(=O)CCCCC3CCSS3)CC2)cc1 (stereo unspecified)
Result :: 8.51

====

Assay overview: Antioxidant activity in Sprague-Dawley rat Cerebral cortex neuron assessed as total antioxidant capacity by measuring trolox equivalents at 50 uM after 24 hrs
Assay type: functional
Endpoint: TAC (mmol/L)
// note: answer is a bare numeric in mmol/L

Query :: Respond only with TAC recorded for O=C(CCCCC1CCSS1)OC1CCN(Cc2ccc(F)cc2)CC1 (centres undefined)
Result :: 13.5

Query :: Respond only with TAC recorded for O=C(CCCCC1CCSS1)N1CCN(Cc2ccccc2)CC1 (centres undefined)
Result :: 14.8

Query :: Respond only with TAC recorded for `O=C(CCCC[C@@H]1CCSS1)OC1CCN(Cc2ccccc2)CC1`
Result :: 10.9

Query :: Respond only with TAC recorded for O=C(O)CCCC[C@@H]1CCSS1 [THIOCTIC ACID]
Result :: 12.1

Query :: Respond only with TAC recorded for COc1ccc(CN2CCC(OC(=O)CCCCC3CCSS3)CC2)cc1 (centres undefined)
Result :: 10.9

Query :: Respond only with TAC recorded for COc1ccc(CN2CCN(C(=O)CCCCC3CCSS3)CC2)cc1 (centres undefined)
Result :: 11

Query :: Respond only with TAC recorded for `O=C(CCCC[C@@H]1CCSS1)N1CCN(Cc2ccccc2)CC1`
Result :: 12.8

Query :: Respond only with TAC recorded for O=C(CCCCC1CCSS1)N1CCN(Cc2ccc(F)cc2)CC1 (centres undefined)
Result :: 11.4

Query :: Respond only with TAC recorded for O=C(CCCCC1CCSS1)OC1CCN(Cc2ccccc2)CC1 (centres undefined)
Result :: 13.6

====

Exercise: for every item that follows, state its recorded viability at 24 h, 1 µM.
Assay overview: Cytotoxicity against Sprague-Dawley rat Cerebral cortex neuron assessed as cell viability at 1 uM incubated for 24 hrs by MTT assay relative to control
Type: tissue-based
Condition info: cerebral cortex neurons, read-out: Activity
// note: answer is a bare numeric in %

Query :: Respond only with viability at 24 h, 1 µM recorded for `O=C(CCCC[C@@H]1CCSS1)N1CCN(Cc2ccccc2)CC1`
Result :: 98.7

Query :: Respond only with viability at 24 h, 1 µM recorded for O=C(CCCCC1CCSS1)OC1CCN(Cc2ccc(F)cc2)CC1 (centres undefined)
Result :: 98.3

Query :: Respond only with viability at 24 h, 1 µM recorded for O=C(O)CCCC[C@@H]1CCSS1 [THIOCTIC ACID]
Result :: 97.9

Query :: Respond only with viability at 24 h, 1 µM recorded for COc1ccc(CN2CCC(OC(=O)CCCCC3CCSS3)CC2)cc1 (centres undefined)
Result :: 98.4

Query :: Respond only with viability at 24 h, 1 µM recorded for COc1ccc(CN2CCN(C(=O)CCCCC3CCSS3)CC2)cc1 (centres undefined)
Result :: 97.4

Query :: Respond only with viability at 24 h, 1 µM recorded for O=C(CCCCC1CCSS1)N1CCN(Cc2ccc(F)cc2)CC1 (centres undefined)
Result :: 97.5

Query :: Respond only with viability at 24 h, 1 µM recorded for O=C(CCCCC1CCSS1)N1CCN(Cc2ccccc2)CC1 (centres undefined)
Result :: 98.6

Query :: Respond only with viability at 24 h, 1 µM recorded for `O=C(CCCC[C@@H]1CCSS1)OC1CCN(Cc2ccccc2)CC1`
Result :: 98.7

Query :: Respond only with viability at 24 h, 1 µM recorded for O=C(CCCCC1CCSS1)OC1CCN(Cc2ccccc2)CC1 (centres undefined)
Result :: 98.7

====

Exercise: for every item that follows, state its recorded Drug degradation.
Assay overview: Stability of compound in phosphate buffer at pH 7.4 assessed as rate of compound hydrolysis by HPLC-UV assay
Type: physicochemical
// note: answer is a bare numeric in h⁻¹

Query :: Respond only with Drug degradation recorded for COc1ccc(CN2CCN(C(=O)CCCCC3CCSS3)CC2)cc1 (stereo unspecified)
Result :: 0.003

Query :: Respond only with Drug degradation recorded for O=C(CCCCC1CCSS1)OC1CCN(Cc2ccc(F)cc2)CC1 (stereo unspecified)
Result :: 0.019

Query :: Respond only with Drug degradation recorded for O=C(CCCCC1CCSS1)N1CCN(Cc2ccc(F)cc2)CC1 (stereo unspecified)
Result :: 0.009

Query :: Respond only with Drug degradation recorded for O=C(CCCCC1CCSS1)OC1CCN(Cc2ccccc2)CC1 (stereo unspecified)
Result :: 0.017

Query :: Respond only with Drug degradation recorded for COc1ccc(CN2CCC(OC(=O)CCCCC3CCSS3)CC2)cc1 (stereo unspecified)
Result :: 0.019

Query :: Respond only with Drug degradation recorded for O=C(CCCCC1CCSS1)N1CCN(Cc2ccccc2)CC1 (stereo unspecified)
Result :: 0.013

Provenance of the data: ChEMBL document CHEMBL4715728
